Field: EC50. Provide a value for each of the compounds that follow.
Target: DYRK1A kinase (Homo sapiens)
Assay: DYRK1A kinase activity (Ser/Thr 18 peptide Z-lyte FRET assay)
Conditions: recombinant DYRK1A, 30 μM ATP, one hour at room temperature
State the answer as a number, implicitly in µM.

Field EC50 (system: DYRK1A kinase (Homo sapiens)) for entry Cn1cncc1-c1ccc2cnc(NC(=O)c3ccc(F)cc3)nc2c1 = 0.002

Item Cc1cn2c(n1)CN(C(=O)Nc1cc3nc(-c4cnc(C)o4)ccc3cn1)CC2 was tested on DYRK1A kinase (Homo sapiens); the reported EC50 is 0.009

The compound CN1CCN(c2ccc(C(=O)Nc3cc4cc(-c5cnn(C)c5)ncc4cn3)cn2)CC1 on DYRK1A kinase (Homo sapiens): EC50 was 0.004

Value sought: EC50, system DYRK1A kinase (Homo sapiens), item COC1CCN(CC(=O)Nc2cc3cc(-c4cn(C)nn4)cnc3cn2)CC1 . Result: 0.207

I looked up Cc1ncc(-c2ccc3cnc(NC(=O)[C@H]4C[C@H](N5CCOCC5)C4)cc3n2)o1 and its EC50 for DYRK1A kinase (Homo sapiens) was 0.054

Assay DYRK1A kinase (Homo sapiens), sample CN1CCN(Cc2cccc(C(=O)Nc3cc4nc(-c5cnn(C)c5)ccc4cn3)c2)CC1 , EC50 read: 0.013

// assay DYRK1A kinase (Homo sapiens), entry Cc1nnc(-c2cc3cc(NC(=O)CN4C5CCC4CC5)ncc3cn2)s1 , EC50 value = 0.529

---

Target: GSK3β kinase (Homo sapiens)
Assay: GSK3β kinase activity (Ser/Thr 09 peptide Z-lyte FRET assay)
Type: biochemical
pEC50: −log10 of the molar value.
readout name: pEC50

The molecule listed as CN1CCN(c2cc(C(=O)Nc3ncc4ccc(-c5ccc(N)nc5)cc4n3)ccn2)CC1 shows pEC50 equal to < 5.00

---

Tested on: α-smooth muscle actin (aSMA) positive LL29 cells
Experiment: Inhibition of the fibrotic process: αSMA staining in TGF-β1 treated LL29 fibroblasts from IPF patients
Conditions: Homo sapiens, Fibroblast, 96 h
What EC50 was measured for each of the following?

Noted for CCN(CC)CC(=O)Nc1ncc2ccc(-c3cnn(C)c3CN3CCCCC3)cc2n1 : its EC50 reads > 10 µM

Record Cc1ncc(-c2ccc3cnc(NC(=O)N4CCC(N(C)C)CC4)cc3n2)s1 , field EC50: 7.65 µM

# EC50 (molecule: CCN(CC)CC(=O)Nc1cc2cc(-c3cnn(C)c3CN3CCCCC3)cnc2cn1 ) is > 10 µM

get_value(item= Cn1cc(-c2ccc3cnc(NC(=O)[C@H]4CCCN4)cc3n2)cn1 , readout=EC50) returns > 10 µM

---

Target: GSK3β kinase (Homo sapiens, UniProt P49841)
Sequence (P49841 whole entry): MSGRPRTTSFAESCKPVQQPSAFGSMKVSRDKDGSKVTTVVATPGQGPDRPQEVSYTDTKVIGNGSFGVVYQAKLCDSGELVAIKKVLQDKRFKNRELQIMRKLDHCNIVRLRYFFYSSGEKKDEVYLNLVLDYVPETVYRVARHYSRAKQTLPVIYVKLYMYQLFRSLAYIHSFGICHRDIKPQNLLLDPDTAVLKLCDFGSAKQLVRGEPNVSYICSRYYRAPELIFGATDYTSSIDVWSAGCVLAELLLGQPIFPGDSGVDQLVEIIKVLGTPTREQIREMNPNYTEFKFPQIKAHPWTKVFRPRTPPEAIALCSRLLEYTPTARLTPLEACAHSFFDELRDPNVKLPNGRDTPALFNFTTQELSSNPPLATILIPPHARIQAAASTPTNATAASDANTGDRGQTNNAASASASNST
Experiment: GSK3β kinase activity (Ser/Thr 09 peptide Z-lyte FRET assay)
Assay type: biochemical
Settings: recombinant kinase, 46 μM ATP, one hour at room temperature; read-out: EC50
Would you mind telling me the reported EC50 of each entry?
Give the value, in units of nM, as a plain number.

Quick note, EC50 for CN1CCN(c2ccc(C(=O)Nc3cc4cc(-c5cnn(C)c5)ncc4cn3)cn2)CC1 [Compound 3778] landed at 187

The value of EC50 measured for the compound Cc1ncc(-c2ccc3cnc(NC(=O)[C@H]4CC[C@H](CO)CC4)cc3n2)s1 [Compound 4558] turned out to be 100

Notebook: Cc1ncc(-c2ccc3cnc(NC(=O)[C@H]4CC[C@H](CO)CC4)nc3c2)o1 [Compound 1447] , EC50 read as 952

Recorded result, CO[C@H]1CC[C@@H](C(=O)Nc2ncc3ccc(-c4nnc(C)s4)cc3n2)CC1 [Compound 1612] , EC50: 49

// field: EC50; key: Nc1cncc(-c2ccc3cnc(NC(=O)c4ccc(OC5CCNCC5)cc4)nc3c2)c1 [Compound 1710] ; value = 8040

// EC50 lookup, compound = CN1CCN(Cc2cccc(C(=O)Nc3ncc4ccc(-c5cnn(C)c5)cc4n3)c2)CC1 [Compound 1079] , result: 9740

---

Molecular target: DYRK1A kinase (Homo sapiens)
Assay: DYRK1A kinase activity (Ser/Thr 18 peptide Z-lyte FRET assay);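 note: kinase activity read as coumarin/fluorescein emission ratio after development step, with unphosphorylated and phosphorylated peptide forms setting 0% and 100% controls, values from dose-response curves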
Settings: recombinant DYRK1A, 30 μM ATP, one hour at room temperature
readout name: EC50 (nM)
Give your result in nM as a bare value.

Recorded EC50 (compound Cn1cc(-c2ccc3cnc(NC(=O)CC4CNCCO4)nc3c2)cn1 (centres unmarked) [Compound 994] ): 15

Memo: CN1CCC(Oc2cccc(C(=O)Nc3ncc4ccc(-c5cnco5)cc4n3)c2)CC1 [Compound 1497] , reported EC50: 30

Record CC(C)CN1CCC(C(=O)Nc2ncc3ccc(-c4cnn(C)c4)cc3n2)CC1 [Compound 923] , field EC50: 44

Looking up Cn1cc(-c2cnc3cnc(NC(=O)C4CCN(S(C)(=O)=O)CC4)cc3c2)cn1 [Compound 2792] , I found its EC50 recorded as 12

Lab note: measured EC50 of Cn1cncc1-c1cnc2cnc(NC(=O)c3ccc4c(c3)CNC4)cc2c1 [Compound 3194] was 6

The compound listed as CN1CCN(c2ccc(C(=O)Nc3cc4cc(-c5cnn(C)c5)cnc4cn3)cn2)CC1 [Compound 2871] shows EC50 equal to 16

Documented EC50 of CN(C)Cc1ccc(C(=O)Nc2cc3cc(-c4cnn(C)c4)ncc3cn2)cc1 [Compound 3797] : 8

# EC50 (compound: CN1CCC(Oc2cccc(C(=O)Nc3cc4cc(-c5cnco5)ncc4cn3)c2)CC1 [Compound 4218] ) is 14

---

Tested on: α-smooth muscle actin (aSMA) positive LL29 cells
Assay: Inhibition of the fibrotic process: αSMA staining in TGF-β1 treated LL29 fibroblasts from IPF patients
Details: Homo sapiens, Fibroblast, 96 h
Can you tell me EC50 for the items I'm about to list?
Numbers only here, please. The scale is µM.

Recorded result, Cn1cncc1-c1ccc2cnc(NC(=O)c3cccc(CN4CCCC4)c3)nc2c1 , EC50: 3.6

The compound listed as CC(C(=O)Nc1cc2cc(-c3cncn3C)ncc2cn1)N1CCCC1 (stereo not drawn) has a reported EC50 of 3.49

Short answer for CC(C(=O)Nc1cc2cc(-c3cnn(C)c3)cnc2cn1)N1CCCCC1 (stereo not drawn) : EC50 was 6.13

The recorded EC50 for CC(C)OC(=O)N1CCC(n2cc(C(=O)Nc3cc4cc(-c5cnn(C)c5)ncc4cn3)cn2)CC1 is 0.597

Entry CN1CCC(Nc2cc(C(=O)Nc3ncc4ccc(-c5cnn(C)c5)cc4n3)ccn2)CC1 — recorded EC50 = 4.09

Form field EC50, entry Cn1cc(-c2ccc3cnc(NC(=O)C4CCN(CC5(C)COC5)CC4)nc3c2)nn1 : 6.97

---

Provide the reported EC50 of each item.
Molecular target: GSK3β kinase (Homo sapiens)
Experiment: GSK3β kinase activity (Ser/Thr 09 peptide Z-lyte FRET assay)
Type: biochemical
Conditions: recombinant kinase, 46 μM ATP, one hour at room temperature; read-out: EC50

Lab book: EC50 of CC(C)Nc1cncc(-c2ccc3cnc(NC(=O)c4cn(C5CCNCC5)nn4)cc3n2)n1 [Compound 862] noted as > 10000 nM

Sample CN1CCc2ccc(C(=O)Nc3ncc4ccc(-c5cnn(C)c5)cc4n3)cc2C1 [Compound 1109] ; EC50 observed: > 10000 nM

According to the records, this compound O=C(Nc1cc2nc(-c3cncc(OCC4CNC4)n3)ccc2cn1)c1ccc(F)cc1 [Compound 892] displays EC50 of > 10000 nM

Input Cn1cc(-c2ccc3cnc(NC(=O)C4CCN(S(C)(=O)=O)CC4)nc3c2)cn1 [Compound 979] . Output EC50: > 10000 nM

Just so you know, measured EC50 for CC(C)n1cc(C(=O)Nc2cc3nc(-c4cncc(NC5CCN(C)CC5)n4)ccc3cn2)cn1 [Compound 4565] came out at > 10000 nM

CNC(=O)c1ccc(C(=O)Nc2cc3cc(-c4cn(C)nn4)ncc3cn2)cn1 [Compound 3999] has a reported EC50 of > 10000 nM

Short answer for Cn1cncc1-c1ccc2cnc(NC(=O)C3CCC(F)(F)CC3)cc2n1 [Compound 400] : EC50 was 36 nM

response.value for Nc1cncc(-c2cc3cc(NC(=O)c4ccc(OC5CCNCC5)cc4)ncc3cn2)c1 [Compound 4431] (field: EC50) = 3780 nM

Entry CC(C)OC(=O)N1CCC(n2cc(C(=O)Nc3cc4cc(-c5cnn(C)c5)ncc4cn3)cn2)CC1 [Compound 3861] , EC50 reported as 1060 nM

// CN1CCN(c2cc(C(=O)Nc3ncc4ccc(-c5cnc(N)s5)cc4n3)ccn2)CC1 [Compound 1589] : EC50 value = 9990 nM

Item: Cn1cc(-c2cc3cc(NC(=O)c4ccnc(OC5CCNCC5)c4)ncc3cn2)cn1 [Compound 3780] | EC50: 275 nM

// recorded EC50 for Cc1ncc(C(=O)Nc2ncc3ccc(-c4cnc(C)n4C)cc3n2)s1 [Compound 1353] : 1350 nM

Summary for this compound, Cn1cncc1-c1cc2cc(NC(=O)C3CCC(F)(F)CC3)ncc2cn1 [Compound 4027] : EC50 is 72 nM

Value of measured EC50 for the entry Cn1cc(-c2ccc3cnc(NC(=O)C4CC4)cc3n2)cn1 [Compound 2] : 20 nM

Origin of the recorded values: patent US10703748B2
